- system: P2Y purinoceptor 6 (Rattus norvegicus) (UniProt Q63371)
- Sequence (Q63371 whole entry): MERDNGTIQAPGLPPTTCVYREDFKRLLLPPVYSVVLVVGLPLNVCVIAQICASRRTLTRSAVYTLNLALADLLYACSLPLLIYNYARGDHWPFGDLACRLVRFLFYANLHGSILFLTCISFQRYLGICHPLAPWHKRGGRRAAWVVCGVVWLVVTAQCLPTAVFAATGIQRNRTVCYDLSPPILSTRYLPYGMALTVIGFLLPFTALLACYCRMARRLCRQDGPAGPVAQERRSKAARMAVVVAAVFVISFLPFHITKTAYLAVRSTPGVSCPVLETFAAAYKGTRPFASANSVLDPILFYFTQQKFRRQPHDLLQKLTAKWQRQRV
- method.notes: Antagonist activity at rat P2Y6 receptor expressed in human 1321N1 cells assessed as inhibition of UDP-induced intracellular calcium mobilization at 100 uM by NOVOstar plate reader
- Assay type: functional, cell-based
test.readout: inhibition (%)
Give the number; % is assumed, so skip it.

                            chemical_string  numeric_value
0  CCOP(=O)(Cc1ccc(NC(=O)CNC(=O)[C@H]2O[C@@H](n3ccc(=O)[nH]c3=O)[C@H](O)[C@@H]2O)cc1)OCC            -10

Looking up CCOP(=O)(CNC(=O)CCNC(=O)[C@H]1O[C@@H](n2ccc(=O)[nH]c2=O)[C@H](O)[C@@H]1O)OCC , I see its inhibition listed as -3

Looking up CCOP(=O)(CNC(=O)CCCNC(=O)[C@H]1O[C@@H](n2ccc(=O)[nH]c2=O)[C@H](O)[C@@H]1O)OCC , I see its inhibition listed as -3

Looking up CCOP(=O)(CCNC(=O)CNC(=O)[C@H]1O[C@@H](n2ccc(=O)[nH]c2=O)[C@H](O)[C@@H]1O)OCC , I see its inhibition listed as 9

Looking up CCOP(=O)(CNC(=O)CNC(=O)[C@H]1O[C@@H](n2ccc(=O)[nH]c2=O)[C@H](O)[C@@H]1O)OCC , I see its inhibition listed as 17

Looking up CCOP(=O)(Cc1ccc(NC(=O)CCNC(=O)[C@H]2O[C@@H](n3cnc4c(N)ncnc43)[C@H](O)[C@@H]2O)cc1)OCC , I see its inhibition listed as 15

Looking up CCOP(=O)(Cc1ccc(NC(=O)CCNC(=O)[C@H]2O[C@@H](n3ccc(=O)[nH]c3=O)[C@H](O)[C@@H]2O)cc1)OCC , I see its inhibition listed as 7

Looking up CCOP(=O)(Cc1ccc(NC(=O)CNC(=O)[C@H]2O[C@@H](n3cnc4c(N)ncnc43)[C@H](O)[C@@H]2O)cc1)OCC , I see its inhibition listed as 6

Looking up CCOP(=O)(Cc1ccc(NC(=O)CCCNC(=O)[C@H]2O[C@@H](n3ccc(=O)[nH]c3=O)[C@H](O)[C@@H]2O)cc1)OCC , I see its inhibition listed as -8
